- Assay system: human VPAC2 (Homo sapiens, UniProt P41587)
- Construct: expressed in transfected cells
- Sequence (P41587 24-438): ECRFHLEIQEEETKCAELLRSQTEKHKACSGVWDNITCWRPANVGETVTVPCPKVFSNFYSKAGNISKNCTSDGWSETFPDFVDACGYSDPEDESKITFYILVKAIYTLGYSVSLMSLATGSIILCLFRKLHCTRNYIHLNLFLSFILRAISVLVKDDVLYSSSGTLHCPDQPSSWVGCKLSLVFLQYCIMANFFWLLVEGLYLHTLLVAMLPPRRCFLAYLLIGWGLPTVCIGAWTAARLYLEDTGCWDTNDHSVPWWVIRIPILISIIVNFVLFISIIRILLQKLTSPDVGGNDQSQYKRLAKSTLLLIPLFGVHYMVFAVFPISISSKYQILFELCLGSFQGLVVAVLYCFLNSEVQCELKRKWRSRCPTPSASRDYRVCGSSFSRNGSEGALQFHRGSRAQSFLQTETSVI
- Assay summary: Alpha screen cAMP in vitro potency, human VPAC2 receptor
- Type: cell-based
- Condition description: cAMP generation; single result from two analyses performed in a single run; read-out: Human VPAC2 Receptor: Alpha Screen EC50
pEC50: −log10 of the molar value. Where no end group is shown, it is not given here. [ ]: non-standard residue; d: D form. The star is where a group is joined. hArg = N=C(N)NCCCC[C@H](N)C(=O)O; Orn = NCCC[C@H](N)C(=O)O; Hexanoyl = CCCCCC(=O)*
substances and their reported pEC50

Substance	pEC50
Hexanoyl-HSDAVFTDNYTRL[hArg][Orn]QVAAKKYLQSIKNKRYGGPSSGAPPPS [Agonist P308]	9.59
Hexanoyl-HSDAVFTDNYTRLQKQVAAKKYLQSIKNKRYGGPSSGAPPPS [Agonist P172]	9.54
Hexanoyl-HSDAVFTDNYTRLRKQVAAKKWLQSIKNKRYGGPSSGAPPPS [Agonist P129]	9.31
Hexanoyl-HSEAVFTDNYTRLRKQVAAKKYLQSIKNKRYGGPSSGAPPPS [Agonist P224]	9.85
HSDAVFTDNYTRLRKQVAASKYLQSIKNKRYGGPSSGAPPPS [Agonist P21]	7.94
Hexanoyl-HSDAVFTDNYTRLRKQVAAYKYLQSIKNKRYGGPSSGAPPPS [Agonist P147]	9.89
Hexanoyl-HSDAVFTDNYTRLRKQVAAKQYLQSIKNKRYGGPSSGAPPPS [Agonist P183]	9.85
Hexanoyl-H[dA]DAVFTDNYTRLRKQVAAKKYLQSIKNKRYGGPSSGAPPPS [Agonist P101]	9.68
